- tested_on: aldosterone synthase (Homo sapiens)
- Construct: host or cells: NCI-H295R
- Sequence (P19099 25-503): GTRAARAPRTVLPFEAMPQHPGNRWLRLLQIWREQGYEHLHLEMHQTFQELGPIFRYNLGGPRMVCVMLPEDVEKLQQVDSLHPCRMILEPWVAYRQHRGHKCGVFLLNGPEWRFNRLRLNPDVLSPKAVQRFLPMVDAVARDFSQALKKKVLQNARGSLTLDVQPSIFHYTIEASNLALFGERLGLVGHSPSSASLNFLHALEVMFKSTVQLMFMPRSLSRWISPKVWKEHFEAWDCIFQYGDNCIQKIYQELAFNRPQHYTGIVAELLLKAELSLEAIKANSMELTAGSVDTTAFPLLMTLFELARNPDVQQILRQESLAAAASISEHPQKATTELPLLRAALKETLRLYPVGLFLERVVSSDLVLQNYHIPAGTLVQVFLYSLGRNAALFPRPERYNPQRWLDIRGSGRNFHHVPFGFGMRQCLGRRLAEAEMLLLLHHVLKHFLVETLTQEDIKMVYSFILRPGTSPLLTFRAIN
- protocol_details: Aldosterone cell secretion in NCI-H295R cells (aldosterone synthase inhibition, SPA)
- Type: cell-based
- condition: human adrenocortical carcinoma NCI-H295R cells, 1 μM Ang II, 24 hr
- Protocol: In particular, the aldosterone synthase inhibitory activities in vitro can be determined by the following assay. Human adrenocortical carcinoma NCI-H295R cell line was obtained from American Type Culture Collection (Manassas, Va.). […] Measurement of aldosterone activity can also be performed using a 96-well plate format. […] The amount of aldosterone in each sample is calculated by comparing with a standard curve generated using known quantities of the hormone. […]
value_kind: IC50 (nM)
Response body: numeric value in nM, unit text excluded.

Consider the following illustrative entries.
{"columns": ["molecule", "IC50 (nM)"],
 "data": [
  ["CC(O)c1ccncc1-c1ccc2oc(=O)n(C)c2c1 (single isomer, unassigned) [Example 7 Enantiomer 2]", 452],
  ["Cn1c(=O)oc2ccc(-c3cncc(C(C)(C)O)c3)cc21", 3],
  ["CN(c1cncc(-c2ccc3oc(=O)n(C)c3c2)c1)S(=O)(=O)C1CC1", 68],
  ["Cn1c(=O)oc2ccc(-c3cncc(C(N)C(F)(F)F)c3)cc21 (single isomer, unassigned) [Example 29 Enantiomer 1]", 47],
  ["Cn1c(=O)oc2ccc(-c3cncc(C(N)C(F)(F)F)c3)cc21 (single isomer, unassigned) [Example 29 Enantiomer 2]", 34]
]}

Recorded result, `Cn1c(=O)oc2ccc(-c3cncc(CCO)c3)cc21` , IC50: 34

Recorded result, Cn1c(=O)oc2ccc(-c3cnccc3C(O)c3ccc(F)cc3)cc21 (single isomer, unassigned) [Example 8 Enantiomer 1] , IC50: 53

Recorded result, Cn1c(=O)oc2ccc(-c3cnccc3C(O)c3ccc(F)cc3)cc21 (single isomer, unassigned) [Example 8 Enantiomer 2] , IC50: 66

Recorded result, `Cc1ccncc1-c1ccc2oc(=O)n(C)c2c1` , IC50: 4

Recorded result, Cn1c(=O)oc2ccc(-c3cncc(C(O)C4CC4)c3)cc21 (single isomer, unassigned) [Example 13 Enantiomer 2] , IC50: 30

Recorded result, `Cn1c(=O)oc2ccc(-c3cncc(F)c3CO)cc21` , IC50: 144

====

- tested_on: CYP11B1 (Homo sapiens, UniProt P15538)
- Construct: the NCI-H295R cells have Cyp11 B1 (steroid 11 β-hydroxylase); host or cells: NCI-H295R
- Sequence (P15538 25-503): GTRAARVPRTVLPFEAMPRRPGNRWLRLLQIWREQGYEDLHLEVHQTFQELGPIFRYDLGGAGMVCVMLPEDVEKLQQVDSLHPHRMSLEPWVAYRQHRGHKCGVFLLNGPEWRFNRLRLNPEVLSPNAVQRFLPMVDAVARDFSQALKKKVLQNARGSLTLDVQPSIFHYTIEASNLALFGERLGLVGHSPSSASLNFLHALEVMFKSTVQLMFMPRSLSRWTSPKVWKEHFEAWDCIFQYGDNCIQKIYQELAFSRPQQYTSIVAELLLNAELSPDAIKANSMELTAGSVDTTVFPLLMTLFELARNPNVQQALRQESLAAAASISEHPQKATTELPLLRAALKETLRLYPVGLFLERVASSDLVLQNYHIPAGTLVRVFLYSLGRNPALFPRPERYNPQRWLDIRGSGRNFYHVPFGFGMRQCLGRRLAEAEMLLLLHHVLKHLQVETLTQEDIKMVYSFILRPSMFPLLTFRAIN
- protocol_details: Cortisol cell secretion in NCI-H295R cells (CYP11B1 activity)
- Type: cell-based
- condition: NCI-H295R, compound at 1 μM, read-out: Cortisol cell secretion (% Inhib. @ 1 μM)
- Source text: The in vitro inhibitory activities for CYP1B1 can be determined by the following assay. […] The excretion of aldosterone, cortisol, corticosterone and estradiol/estrone into the culture medium can be detected and quantified by commercially available, specific monoclonal antibodies in radioimmunoassays in accordance with the manufacturer's instructions. […]
# inhibition at 1 µM >= 60% gives 1, anything below gives -1

Below are worked cases with known answers.
{"columns": ["molecule", "class"],
 "data": [
  ["Cn1c(=O)oc2ccc(-c3cncc(C(C)(C)O)c3)cc21", 1],
  ["CN(c1cncc(-c2ccc3oc(=O)n(C)c3c2)c1)S(=O)(=O)C1CC1", 1],
  ["Cn1c(=O)oc2ccc(-c3cnccc3C(O)c3ccc(F)cc3)cc21 (single isomer, unassigned) [Example 8 Enantiomer 1]", 1],
  ["CCCS(=O)(=O)Nc1cncc(-c2ccc3oc(=O)n(C)c3c2)c1", -1],
  ["Cn1c(=O)oc2ccc(-c3cncc(C(N)C(F)(F)F)c3)cc21 (single isomer, unassigned) [Example 29 Enantiomer 1]", -1],
  ["Cn1c(=O)oc2ccc(-c3cncc(C(O)C(F)(F)F)c3)cc21 (stereo not drawn)", 1],
  ["CCN(Cc1ccccc1)Cc1cncc(-c2ccc3oc(=O)n(C)c3c2)c1", 1],
  ["Cn1c(=O)oc2ccc(-c3cncc(F)c3CO)cc21", -1]
]}

Exercise: Assess whether reported inhibition at 1 µM for `Cn1c(=O)oc2cc(F)c(-c3cncc(CO)c3)cc21` sits at 60% or higher.
Solution: -1

Exercise: Assess whether reported inhibition at 1 µM for `COc1cncc(-c2ccc3oc(=O)n(C)c3c2)c1` sits at 60% or higher.
Solution: 1

Exercise: Assess whether reported inhibition at 1 µM for `Cn1c(=O)oc2ccc(-c3cccnc3)cc21` sits at 60% or higher.
Solution: -1
